assay: sensitizers of A549 cells to miR-34 induction, primary screen, imaging, A549 dox-inducible miR-34, nuclei and caspase counts (AID 1347080); conditions: A549 miR-34 inducible, Hoechst nuclei count, 48 h; measured here: total cells without miR-34 induction
Records here are stratified by cell count; strata: lower range (below 9000), middle range (9000 to below 10000), upper range (10000 or more)

> print(dat)
                                        mol  assigned.class
1                NS(=O)(=O)c1ccc(C(=O)O)cc1    middle range
2           O=C(O)c1cc(=O)c2ccc(Cl)cc2[nH]1     lower range
3              O=C(Oc1cccc2cccnc12)c1ccccc1     upper range
4          COc1ccc(-c2coc3cc(O)ccc3c2=O)cc1     lower range
5               NC(=O)NS(=O)(=O)c1ccc(N)cc1    middle range
6  CCN(CC)CCOc1ccc2c(c1)C(=O)c1cc(OCCN(CC)CC)ccc1-2     upper range
7  CS(=O)(=O)CCNCc1nc(-c2ccc3ncnc(Nc4ccc(OCc5cccc(F)c5)c(Cl)c4)c3c2)cs1     lower range
8  COc1cc(Nc2c(C#N)cnc3cc(OCCCN4CCN(C)CC4)c(OC)cc23)c(Cl)cc1Cl     lower range

* * *

test: differential killing of epithelial or mesenchymal cells, primary screen, imaging, PC-3E GFP, TEM4-18 mCherry, co-culture (AID 1345086); details: imaging cell counts, measured here: epithelial PC-3E GFP cell survival, at 1 µM;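 also: cells exposed to compound for 72 h before imaging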
Could you please mark yes for values of normalised cell number below 1 and no for values at or above it?

Compound	Assigned class
Nc1ccccc1C(=O)CC(N)C(=O)O (stereo not drawn)	yes
CN1CCc2c(c3ccccc3n2Cc2ccccc2)C1	yes
CC(O)C(=O)O (stereo not drawn)	no
Cn1c(=O)c2[nH]c(C3CCCC3)nc2n(C)c1=O	no
C#CCCCCCCCCCCCC(O)CC(O)CO (stereo not drawn)	yes
CCCCN1CCCCC1C(=O)Nc1c(C)cccc1C (stereo not drawn)	no
CC(C)NCC(O)COc1cccc2[nH]ccc12 (stereo not drawn)	yes
CNCCC(Oc1ccc(C(F)(F)F)cc1)c1ccccc1 (stereo not drawn)	no
O=C(Nc1ccccc1)Nc1ccccc1	no
COc1c2ccccc2nc2occc12	no
CC[C@H]1OC(=O)C[C@@H](O)[C@H](C)[C@@H](O[C@@H]2O[C@H](C)[C@@H](O[C@H]3C[C@@](C)(O)[C@@H](O)[C@H](C)O3)[C@H](N(C)C)[C@H]2O)[C@@H](CC=O)C[C@@H](C)C(=O)/C=C/C(C)=C/[C@@H]1CO[C@@H]1O[C@H](C)[C@@H](O)[C@@H](OC)[C@H]1OC	no
O=C(/C=C/c1ccccc1)c1ccc(O)cc1	yes
O=C(CCc1ccc(O)cc1)c1c(O)cc(O)cc1O	yes
C[C@]12CCC3c4ccc(OS(=O)(=O)O)cc4CCC3C1CC[C@H]2O (stereo partly drawn)	no
CC(C)(C)NCC(O)COc1cccc2c1CCC(=O)N2 (stereo not drawn)	no
COc1cc(O)c(C)c(O)c1	no
CC/C(=C(\c1ccccc1)c1ccc(OCCN(C)C)cc1)c1ccccc1	yes
CC(CCc1ccccc1)NCC(O)c1ccc(O)c(C(N)=O)c1 (stereo not drawn)	yes
C=C[C@H]1CN2CC[C@H]1C[C@@H]2[C@@H](O)c1ccnc2ccc(OC)cc12	no
CC1=C(CCC(=O)O)c2cc3nc(cc4[nH]c(cc5[nH]c(cc1n2)c(C)c5C(C)O)c(C)c4C(C)O)C(C)=C3CCC(=O)O (stereo not drawn)	yes
C[n+]1c2cc(N)ccc2cc2ccc(N)cc21	yes
Cc1ccc2c(c1)CC[C@H]1CC(=O)CC[C@]21C	no
Cc1cc(=O)oc2c(O)c(O)ccc12	yes
Cc1cc(C(C)(C)CC(C)(C)C)ccc1OCCOCC[N+](C)(C)Cc1ccccc1	yes
COc1cc(/C=C/C(N)=O)cc(OC)c1OC	no

* * *

// values below are reported inhibition
experiment: HD-MB03 medulloblastoma cell growth inhibition, synergistic combos for chromothripsis tumors, BGB or cisplatin IC20 combos (AID 1671455); settings: HD-MB03 medulloblastoma cells, measured here: combo with BGB at IC20, at 0.5 µM, stronger effect = higher value;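 also: 0% = vehicle DMSO and 100% = high DMSO as cytotoxic control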
Measured attribute: inhibition (%)

> print(dat)
                                        mol  quantitative.readout
1  CN1CCN(c2c(F)cc3c(=O)c(C(=O)O)cn(CCF)c3c2F)CC1                  8.44
2  CN1CCN(c2c(F)cc3c(=O)c(C(=O)O)cn4c3c2OCN4C)CC1                  4.92
3  N=c1ccn2c(n1)O[C@H]1[C@H](O)[C@@H](CO)O[C@H]12                    84

* * *

assay: CellTiter-Glo luminescent readout of SW480 viability loss, NPC library primary (AID 1117343); details: CellTiter-Glo luminescence; at 20 µM (top of the series) unless noted
Active and inactive are the calls of the source.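 The calls were made as follows: active = compounds that lower viability of the colon cancer cells in the luminescence readout, with no numeric limit stated; inactive = the rest.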
Possible outcomes: active, inactive

> print(dat)
                                    compound  assigned.class
 1                    N[C@@H](CC(=O)O)C(=O)O        inactive
 2  CCNC(=O)N1CCN(CCCC(c2ccc(F)cc2)c2ccc(F)cc2)CC1          active
 3        Cc1cc2nc3ccc(=[N+](C)C)cc-3sc2cc1N          active
 4                       Nc1cc(=O)[nH]c(N)n1          active
 5  CC(C)(C)CC(C)(C)c1ccc(OCCOCC[N+](C)(C)Cc2ccccc2)cc1          active
 6  O=C(O)[C@H](O)[C@@H](O)[C@H](O[C@@H]1O[C@H](CO)[C@H](O)[C@H](O)[C@H]1O)[C@H](O)CO          active
 7  O=S1(=O)c2cccc3cccc(c23)N1CCCN1CCN(c2ccc(F)cc2)CC1          active
 8  CC(=O)N(c1onc(C)c1C)S(=O)(=O)c1ccc(N)cc1        inactive
 9  C[N+]1(C)CCC(OC(=O)C(O)(c2ccccc2)C2CCCC2)C1 (configuration not stated)        inactive
10  CCCNC(C)C(=O)Nc1c(C)csc1C(=O)OC (configuration not stated)        inactive
11                  Cc1ccc(=O)n(-c2ccccc2)c1        inactive
12        Cc1ccc2nc(N)[nH]c(=O)c2c1Sc1ccncc1          active
13            CCOC(=O)c1c(C)n(C)c2ccc(O)cc12        inactive
14    O=C(O)Cc1ccc(OCCNC[C@H](O)c2ccccc2)cc1        inactive
15                                OCc1ccccn1          active
16  CCOC(=O)c1ccc(C#Cc2ccc3c(c2)C(C)(C)CCS3)nc1          active
17  CC[N+](CC)(CC(=O)Nc1c(C)cccc1C)Cc1ccccc1        inactive

* * *

assay: growth inhibition of DIPG glioma cells, dose response, cell-based, JHH-DIPG-1, MIPE4.0, CellTiter-Glo, qHTS (AID 1347062); settings: JHH-DIPG-1 viability, CellTiter-Glo ATP luminescence;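 as to AC50: cells exposed to compound for two days before readout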
Records with an inconclusive call do not appear. Activity calls are given as the source filed them. Cut-off not given; nearly all actives show AC50 up to about 27 µM.
Classes used: active, inactive

Compound	Assigned class
Nc1ccn(C[C@@H](CO)OCP(=O)(O)O)c(=O)n1	inactive
Cc1[nH]c(=O)c(C#N)cc1-c1ccc2nccn2c1	inactive
COc1cc(Nc2c(C#N)cnc3cc(OCCCN4CCN(C)CC4)c(OC)cc23)c(Cl)cc1Cl	active
NC[C@H]1O[C@H](O[C@H]2[C@H](O)[C@@H](O[C@H]3O[C@H](CO)[C@@H](O)[C@H](N)[C@H]3O)[C@H](N)C[C@@H]2N)[C@H](N)C[C@@H]1O	inactive
CN1CCN(C2=Nc3cc(Cl)ccc3Nc3ccccc32)CC1	inactive
C[C@H]1COc2c(N3CCN(C)CC3)c(F)cc3c(=O)c(C(=O)O)cn1c23	inactive
CCCCC(CC)COC(=O)C(C#N)=C(c1ccccc1)c1ccccc1 (stereo unspecified)	inactive
Cc1cc(NS(=O)(=O)c2ccc(N)cc2)no1	inactive
Cc1c(C(=O)NN2CCCCC2)nn(-c2ccc(Cl)cc2Cl)c1-c1ccc(Cl)cc1	active
O=c1[nH]c(=O)n([C@H]2C[C@H](O)[C@@H](CO)O2)cc1C(F)(F)F	inactive
CC(C)OC(=O)C(C)(C)Oc1ccc(C(=O)c2ccc(Cl)cc2)cc1	inactive
CC[C@H]1OC(=O)[C@H](C)[C@@H](O[C@H]2C[C@@](C)(OC)[C@@H](O)[C@H](C)O2)[C@H](C)[C@@H](O[C@@H]2O[C@H](C)C[C@H](N(C)C)[C@H]2O)[C@](C)(OC)C[C@@H](C)C(=O)[C@H](C)[C@@H](O)[C@]1(C)O	inactive
CC(C)OC(=O)C(C(=O)OC(C)C)=C1SC=CS1	inactive
CS(=O)(=O)CCNCc1ccc(-c2ccc3ncnc(Nc4ccc(OCc5cccc(F)c5)c(Cl)c4)c3c2)o1	active
CCOC(=O)[C@H](CCc1ccccc1)N[C@H]1CS[C@H](c2cccs2)CN(CC(=O)O)C1=O	active
Cc1ccc(Nc2nccc(N(C)c3ccc4c(C)n(C)nc4c3)n2)cc1S(N)(=O)=O	inactive
